Attribution: patent US20250136568A1

# test_details: in vivo
# setup_conditions: male, CD1, mouse
assay_metric: clearance (mL/min/kg)
Note: unit mL/min/kg is implicit; provide only the numeric part.

Recorded result, `Cc1cc([C@@H](C)Nc2ccccc2C(=O)O)c2oc(-c3ccc(CN4CCN(C)CC4)cc3)c(C)c(=O)c2c1` , clearance: 10.9

* * *

# test_target: PI3Kα WT (Homo sapiens, UniProt P42336)
# Sequence (P42336 whole entry): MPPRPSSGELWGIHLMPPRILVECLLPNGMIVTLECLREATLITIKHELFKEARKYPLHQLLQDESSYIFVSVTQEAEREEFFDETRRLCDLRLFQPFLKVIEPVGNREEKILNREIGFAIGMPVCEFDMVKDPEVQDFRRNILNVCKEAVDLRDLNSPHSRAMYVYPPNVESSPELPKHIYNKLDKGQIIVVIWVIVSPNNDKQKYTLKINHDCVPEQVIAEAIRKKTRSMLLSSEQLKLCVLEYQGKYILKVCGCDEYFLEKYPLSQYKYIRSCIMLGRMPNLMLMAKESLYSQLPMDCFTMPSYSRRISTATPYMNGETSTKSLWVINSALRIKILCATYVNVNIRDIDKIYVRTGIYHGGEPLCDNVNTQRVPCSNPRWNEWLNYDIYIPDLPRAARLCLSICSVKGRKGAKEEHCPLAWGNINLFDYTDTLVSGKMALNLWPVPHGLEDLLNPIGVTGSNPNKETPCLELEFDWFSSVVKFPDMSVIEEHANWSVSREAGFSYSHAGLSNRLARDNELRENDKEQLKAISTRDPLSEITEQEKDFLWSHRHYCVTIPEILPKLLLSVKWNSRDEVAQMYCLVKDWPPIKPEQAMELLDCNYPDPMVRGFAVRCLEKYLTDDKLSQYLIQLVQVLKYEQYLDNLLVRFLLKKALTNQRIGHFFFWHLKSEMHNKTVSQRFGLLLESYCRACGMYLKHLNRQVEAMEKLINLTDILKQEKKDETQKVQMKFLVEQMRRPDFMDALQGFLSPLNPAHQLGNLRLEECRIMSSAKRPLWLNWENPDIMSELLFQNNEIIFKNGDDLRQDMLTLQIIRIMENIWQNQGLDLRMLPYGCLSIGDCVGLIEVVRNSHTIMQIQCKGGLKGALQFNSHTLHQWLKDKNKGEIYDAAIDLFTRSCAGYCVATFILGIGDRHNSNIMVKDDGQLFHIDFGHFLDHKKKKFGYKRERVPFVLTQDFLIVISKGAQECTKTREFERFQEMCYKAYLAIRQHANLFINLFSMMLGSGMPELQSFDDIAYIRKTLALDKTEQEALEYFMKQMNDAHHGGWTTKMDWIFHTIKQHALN
# Sequence (P27986 whole entry partner): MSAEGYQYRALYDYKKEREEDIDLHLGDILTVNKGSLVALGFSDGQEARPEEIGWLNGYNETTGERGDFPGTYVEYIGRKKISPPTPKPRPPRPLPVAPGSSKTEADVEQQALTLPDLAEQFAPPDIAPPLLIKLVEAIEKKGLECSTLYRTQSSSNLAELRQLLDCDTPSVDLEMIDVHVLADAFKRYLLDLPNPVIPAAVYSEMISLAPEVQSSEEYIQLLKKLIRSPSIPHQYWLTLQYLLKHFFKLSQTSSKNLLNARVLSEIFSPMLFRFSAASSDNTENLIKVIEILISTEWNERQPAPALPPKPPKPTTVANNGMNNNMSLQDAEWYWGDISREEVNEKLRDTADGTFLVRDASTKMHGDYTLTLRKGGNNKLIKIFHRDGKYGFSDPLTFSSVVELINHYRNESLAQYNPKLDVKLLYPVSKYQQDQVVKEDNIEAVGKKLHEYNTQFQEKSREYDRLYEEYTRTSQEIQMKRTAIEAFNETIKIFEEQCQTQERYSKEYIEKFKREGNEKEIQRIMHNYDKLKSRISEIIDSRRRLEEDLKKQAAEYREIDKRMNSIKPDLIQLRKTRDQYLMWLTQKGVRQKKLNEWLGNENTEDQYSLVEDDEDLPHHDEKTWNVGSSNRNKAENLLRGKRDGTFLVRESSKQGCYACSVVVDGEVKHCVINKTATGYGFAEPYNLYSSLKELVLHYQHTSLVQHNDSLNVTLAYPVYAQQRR
# test_details: pAKT (S473) ELISA assay in WT cell line (SK-BR-3)
# Format: cell-based
# setup_conditions: SK-BR-3 cells, two hours compound, IGF-1 50 ng/ml stimulation
// reported IC50 per item
Form entry: value (nM) — number only.

IC50 for Cc1cc([C@@H](C)Nc2ccccc2C(=O)O)c2oc(-c3ccc(-c4cnn(C)c4)nc3)c(C)c(=O)c2c1 [Example 150] is 2370

* * *

# test_target: PI3Kα H1047R mutant (Homo sapiens, UniProt P42336, H1047R)
# Sequence (P42336 whole entry H1047R): as the sequence (P42336 whole entry) above, with H1047R counted along it
# Sequence (P27986 whole entry partner): as the sequence (P27986 whole entry partner) above
# test_details: pAKT (S473) ELISA assay in PI3Kα H1047R mutant cell line (T47D)
# Format: cell-based
# setup_conditions: T47D cells, two hours compound, IGF-1 50 ng/ml stimulation
Reported IC50 is given for each of the following molecules.
Output spec: scalar in nM, unitless text.

Some solved entries appear below for comparison.
>  <molecule>
Cc1cc([C@@H](C)Nc2ccccc2C(=O)O)c2oc(-c3ccc(OCCN(C)C)cc3)c(C)c(=O)c2c1

>  <assay_metric>
IC50

>  <unit_spec>
nM

>  <measurement>
42.3

$$$$
>  <molecule>
Cc1cc([C@@H](C)Nc2ccccc2C(=O)O)c2oc(-c3ccc(CN4CCN(C)C(=O)C4)cc3)c(C)c(=O)c2c1

>  <assay_metric>
IC50

>  <unit_spec>
nM

>  <measurement>
48.5

$$$$
>  <molecule>
CC(=O)N1CCN(c2ccc(-c3oc4c([C@@H](C)Nc5ccccc5C(=O)O)cc(C)cc4c(=O)c3C)cc2)CC1 (single isomer, unassigned) [Example 123A]

>  <assay_metric>
IC50

>  <unit_spec>
nM

>  <measurement>
37

$$$$
>  <molecule>
Cc1cc([C@@H](C)Nc2ccccc2C(=O)O)c2oc(-c3ccc(-c4cnn(C)c4)nc3)c(C)c(=O)c2c1

>  <assay_metric>
IC50

>  <unit_spec>
nM

>  <measurement>
25

$$$$
>  <molecule>
Cc1cc([C@@H](C)Nc2ccccc2C(=O)O)c2oc(-c3ccc4nn(C)cc4c3)cc(=O)c2c1 (single isomer, unassigned) [Example 38B]

>  <assay_metric>
IC50

>  <unit_spec>
nM

>  <measurement>
25

$$$$
>  <molecule>
C[C@@H](Nc1ccccc1C(=O)O)c1cc(Cl)cc2c(=O)cc(-c3ccc4nn(C)cc4c3)oc12 (single isomer, unassigned) [Example 98B]

>  <assay_metric>
IC50

>  <unit_spec>
nM

>  <measurement>
19.5

$$$$

Now let's try a different one.
The recorded IC50 for `Cc1cc([C@@H](C)Nc2ccccc2C(=O)O)c2oc(-c3ccc(CN4CCN(C)CC4)cc3)c(C)c(=O)c2c1` is 46.5

* * *

Catalogue of clearance readings, one per entry.
# test_details: In vivo pharmacokinetics in mice
# setup_conditions: male, CD1, mouse, plasma, intravenous, 1 mg/kg
Kindly answer with a numeric value in mL/min/kg, unit omitted.

>  <compound>
Cc1cc([C@@H](C)Nc2ccccc2C(=O)O)c2oc(-c3ccc4nn(C)cc4c3)cc(=O)c2c1 (single isomer, unassigned) [Example 38B]

>  <unit_spec>
mL/min/kg

>  <measurement>
34

$$$$

Would you kindly look at the next entry?
Briefly, clearance measured for `Cc1cc([C@@H](C)Nc2ccccc2C(=O)O)c2oc(-c3ccc(-c4cnn(C)c4)nc3)c(C)c(=O)c2c1` : 3.75

* * *

# test_target: UniProt:P42336
# test_details: pAKT (S473) ELISA assay in WT cell line (SK-BR-3)
# Type: cell-based
# setup_conditions: SK-BR-3 cells, two hours compound, IGF-1 50 ng/ml stimulation
assay_metric: IC50 (nM)
State the answer as a number, implicitly in nM.

>  <compound>
Cc1cc([C@@H](C)Nc2ccccc2C(=O)O)c2oc(-c3ccc(OCCN(C)C)cc3)c(C)c(=O)c2c1

>  <test_target>
UniProt:P42336

>  <IC50 [nM]>
2390

$$$$
>  <compound>
Cc1cc([C@@H](C)Nc2ccccc2C(=O)O)c2oc(-c3ccc(CN4CCN(C)C(=O)C4)cc3)c(C)c(=O)c2c1

>  <test_target>
UniProt:P42336

>  <IC50 [nM]>
4340

$$$$
>  <compound>
Cc1cc([C@@H](C)Nc2ccccc2C(=O)O)c2oc(-c3ccc(CN4CCN(C)CC4)cc3)c(C)c(=O)c2c1

>  <test_target>
UniProt:P42336

>  <IC50 [nM]>
6130

$$$$
>  <compound>
CC(=O)N1CCN(c2ccc(-c3oc4c([C@@H](C)Nc5ccccc5C(=O)O)cc(C)cc4c(=O)c3C)cc2)CC1 (single isomer, unassigned) [Example 123A]

>  <test_target>
UniProt:P42336

>  <IC50 [nM]>
1100

$$$$
>  <compound>
Cc1cc([C@@H](C)Nc2ccccc2C(=O)O)c2oc(-c3ccc4nn(C)cc4c3)cc(=O)c2c1 (single isomer, unassigned) [Example 38B]

>  <test_target>
UniProt:P42336

>  <IC50 [nM]>
1290

$$$$

Okay, next one:
Short answer for C[C@@H](Nc1ccccc1C(=O)O)c1cc(Cl)cc2c(=O)cc(-c3ccc4nn(C)cc4c3)oc12 (single isomer, unassigned) [Example 98B] : IC50 was 1340
